B1: Triacylglycerol hydrolase DDHD2, residues 389 to 447; numbered along this chain, O94830 (parent)
chain: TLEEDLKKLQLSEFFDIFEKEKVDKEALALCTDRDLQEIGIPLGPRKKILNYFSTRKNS

Variants of: B1
MEASUREMENT_DESCRIPTION: abundance fitness (aPCA) (normalised: wild type 0, dead -1); higher = more abundant; growth selection in yeast, the domain comes from the species named
CONDITION_SET: Homo sapiens
Threshold check on abundance fitness: at or above -0.2 gives True, strictly below gives False.

Problem: For this variant, is measured abundance fitness -0.2 or higher? K57V
Solution: True

Problem: For this variant, is measured abundance fitness -0.2 or higher? L28T
Solution: False

Problem: For this variant, is measured abundance fitness -0.2 or higher? R56V
Solution: True

Problem: For this variant, is measured abundance fitness -0.2 or higher? D35L
Solution: False

Problem: For this variant, is measured abundance fitness -0.2 or higher? L50F
Solution: True

Problem: For this variant, is measured abundance fitness -0.2 or higher? S12A
Solution: True

Problem: For this variant, is measured abundance fitness -0.2 or higher? G44N
Solution: True

Problem: For this variant, is measured abundance fitness -0.2 or higher? E4M
Solution: True

Problem: For this variant, is measured abundance fitness -0.2 or higher? F14R
Solution: False

Problem: For this variant, is measured abundance fitness -0.2 or higher? E26I
Solution: False

Problem: For this variant, is measured abundance fitness -0.2 or higher? I39F
Solution: True

Where these numbers come from: the Human Domainome abundance scans (Beltran et al. 2025)
